Measured efflux ratio at 120 min, 1 μM of individual entries
- System under test: MDR1 (Homo sapiens (Human), UniProt P08183)
- Sequence (P08183 whole entry): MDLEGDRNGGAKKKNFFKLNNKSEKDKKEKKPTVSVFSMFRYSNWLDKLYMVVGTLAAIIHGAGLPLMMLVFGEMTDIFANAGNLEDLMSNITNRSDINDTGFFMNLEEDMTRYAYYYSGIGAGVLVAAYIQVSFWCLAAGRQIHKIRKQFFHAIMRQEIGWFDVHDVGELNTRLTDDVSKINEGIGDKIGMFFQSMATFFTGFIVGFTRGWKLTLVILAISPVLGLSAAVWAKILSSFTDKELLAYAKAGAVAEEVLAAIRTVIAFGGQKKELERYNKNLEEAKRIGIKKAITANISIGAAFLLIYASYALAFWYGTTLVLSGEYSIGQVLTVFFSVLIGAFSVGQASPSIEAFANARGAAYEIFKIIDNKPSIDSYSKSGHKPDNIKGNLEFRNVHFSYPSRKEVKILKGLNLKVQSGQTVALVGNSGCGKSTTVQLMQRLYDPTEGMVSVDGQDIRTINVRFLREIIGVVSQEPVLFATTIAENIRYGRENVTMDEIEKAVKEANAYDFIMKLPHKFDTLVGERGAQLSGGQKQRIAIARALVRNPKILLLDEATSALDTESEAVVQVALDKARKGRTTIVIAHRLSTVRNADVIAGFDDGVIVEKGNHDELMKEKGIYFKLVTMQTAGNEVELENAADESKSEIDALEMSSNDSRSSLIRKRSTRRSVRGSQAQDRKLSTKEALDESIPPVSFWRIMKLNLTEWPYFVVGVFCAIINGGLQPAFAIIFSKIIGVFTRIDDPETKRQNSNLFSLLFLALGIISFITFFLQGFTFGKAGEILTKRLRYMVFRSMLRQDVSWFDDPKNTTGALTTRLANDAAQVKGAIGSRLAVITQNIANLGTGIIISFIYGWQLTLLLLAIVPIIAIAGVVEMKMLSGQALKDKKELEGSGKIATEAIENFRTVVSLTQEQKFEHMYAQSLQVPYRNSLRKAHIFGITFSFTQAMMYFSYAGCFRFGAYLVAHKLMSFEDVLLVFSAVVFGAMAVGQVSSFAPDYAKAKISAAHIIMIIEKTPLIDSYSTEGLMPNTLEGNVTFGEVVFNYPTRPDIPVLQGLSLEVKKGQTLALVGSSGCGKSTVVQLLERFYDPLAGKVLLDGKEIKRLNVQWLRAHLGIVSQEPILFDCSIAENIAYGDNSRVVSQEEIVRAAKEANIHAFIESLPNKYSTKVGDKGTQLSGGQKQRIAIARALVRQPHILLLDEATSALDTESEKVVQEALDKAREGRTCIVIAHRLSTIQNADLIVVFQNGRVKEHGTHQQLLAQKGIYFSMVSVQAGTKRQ
- Assay: in vitro
- Condition context: MDCK-MDR1
Number, no unit, nothing else.

>>> recorded_value("COCC12CC(c3cn4cc(C(=O)Nc5cccn([C@H]6C[C@H]6F)c5=O)c(OC5CCC5)nc4n3)(CO1)C2")
20.8
>>> recorded_value("CC[C@H](C)Oc1cc2nc(C34COC(C)(C3)C4)cn2cc1C(=O)Nc1cccn([C@H]2C[C@H]2F)c1=O (single isomer, unassigned)")
8.6

API: the following record is the query input.
State its efflux ratio at 120 min, 1 μM: CC[C@H](C)Oc1nc2nc(C34COC(C)(C3)C4)cn2cc1C(=O)Nc1cccn(C2CC2)c1=O (single isomer, unassigned)
5

====

- Assay: Kinetic solubility assay (CLND), pH 6.8
- Format: physicochemical
- Condition context: aqueous buffer, kinetic from dmso stock; potassium phosphate buffer pH 6.8, 2% DMSO, 24 hours at ambient temperature
Counter-ions that a name gives are not always drawn.
Assign TRUE whenever solubility kinetic at 24 h does not fall below 40 µg/mL; assign FALSE whenever it does.

>>> category_label("CC(C)Oc1cc2nc([C@]34CC[C@](C)(C3)OC4)cn2cc1C(=O)Nc1cccn([C@H]2C[C@H]2F)c1=O")
"TRUE"

Please tell me: is the molecule C[C@@H]1C[C@@H]1n1cccc(NC(=O)c2cn3cc(C45COC(C)(C4)C5)nc3cc2OC2CCC2)c1=O [Example 190, trifluoroacetate] at or over 40 µg/mL in terms of solubility kinetic at 24 h?
TRUE

Could you tell me if the measured solubility kinetic at 24 h of Cc1cnc2c(NC(=O)c3cn4cc(C56CCC(C)(CC5)OC6)nc4cc3OC(C)C)cnn2c1 [Comparator 5B, reference compound] reaches 40 µg/mL or more?
FALSE

Does the reported solubility kinetic at 24 h for C[C@@H](CF)Oc1cc2nc(C34CCC(C)(C3)OC4)cn2cc1C(=O)Nc1cccn(C2CC2)c1=O (mixture of isomers) fall at or above the 40 µg/mL mark?
TRUE

Textbook exercise: given the entry CC[C@H](C)Oc1cc2nc(C34COC(C)(C3)C4)cn2cc1C(=O)Nc1cccn(C2CC2F)c1=O (mixture of isomers) , state whether its solubility kinetic at 24 h is greater than or equal to 40 µg/mL.
TRUE

Is it the case that C[C@]12CC[C@](c3cn4cc(C(=O)Nc5cccn(C6CC6)c5=O)c(OC5CCC5)nc4n3)(CO1)C2 (single isomer, unassigned) has solubility kinetic at 24 h reaching or exceeding 40 µg/mL?
FALSE

Check if solubility kinetic at 24 h >= 40 µg/mL (inclusive). Item: CC(C)Oc1nc2nc([C@]34CC[C@](C)(C3)OC4)cn2cc1C(=O)Nc1cccn([C@H]2C[C@@H]2F)c1=O (single isomer, unassigned)
FALSE

Could you tell me if the measured solubility kinetic at 24 h of CC(C)Oc1c(C(=O)Nc2cccn([C@H]3C[C@H]3F)c2=O)cn2cc([C@]34CC[C@](C)(C3)OC4)nc2c1F (single isomer, unassigned) reaches 40 µg/mL or more?
FALSE

Is it the case that COC[C@@]12CC[C@@](c3cn4cc(C(=O)Nc5cccn([C@H]6C[C@H]6F)c5=O)c(OC(C)C)nc4n3)(CO1)C2 (single isomer, unassigned) has solubility kinetic at 24 h reaching or exceeding 40 µg/mL?
TRUE

Could you verify whether the entry "O=C(Nc1cccn(C2CC2)c1=O)c1cn2cc(C34COC(CF)(C3)C4)nc2nc1OC1CCC1" shows solubility kinetic at 24 h of no less than 40 µg/mL?
FALSE

Please tell me: is the molecule CC(C)Oc1cc2nc([C@]34CC[C@](C)(C3)OC4)cn2cc1C(=O)Nc1cccn([C@H]2C[C@H]2C)c1=O [Example 180, trifluoroacetate] at or over 40 µg/mL in terms of solubility kinetic at 24 h?
FALSE

Assess whether reported solubility kinetic at 24 h for O=C(Nc1cccn([C@@H]2C[C@@H]2F)c1=O)c1cn2cc(C34COC(C3)C4)nc2nc1OC1CCC1 (racemic) sits at 40 µg/mL or higher.
TRUE

Entry "CC12CC(c3cn4cc(C(=O)Nc5cccn(C6CC6)c5=O)c(OC5CCC5)cc4n3)(CO1)C2" : is its solubility kinetic at 24 h no less than 40 µg/mL?
TRUE

hey, is solubility kinetic at 24 h for this one >= 40 µg/mL? Cc1cnc2c(NC(=O)c3cn4cc(C56CCC(C)(CC5)OC6)nc4nc3OC(C)C)cnn2c1 [Comparator 6B, reference compound]
FALSE

Determine whether measured solubility kinetic at 24 h meets or exceeds 40 µg/mL for "COC12CC(c3cn4cc(C(=O)Nc5cccn(C6CC6)c5=O)c(OC(C)C)cc4n3)(C1)C2"
TRUE

I'd appreciate it if you could say whether Cc1cnc2c(NC(=O)c3cn4cc([C@@]56CC[C@@](C)(C5)OC6)nc4nc3OC(C)C)cnn2c1 (single isomer, unassigned) [Comparator 4B, reference compound] has solubility kinetic at 24 h at least equal to 40 µg/mL.
FALSE
